These measurements were taken from patent US20240115557A1.

# experimental target: UniProt J7RUA5
# test description: eGFP secondary assay, SaCas9
# Type: cell-based
# details: replicate 2
metric: Normalized Inhibition Rep 2

Example entries begin here.
NC(=O)c1sc(=S)n(Cc2ccccc2)c1N : 67.693
Cc1cccc(NC(=O)c2cc3c(=O)n4ccccc4nc3s2)c1 : 40.519
O=C(NCCCN1CCC(N2CCCCC2)CC1)C1=Cc2sc3c(c2CS1)CCCC3 : 47.827

Hi! Can you tell me Normalized Inhibition Rep 2 for each of these compounds?
1. Cc1ccc(C)c(Nc2nc(C(N)=O)c(NC(=O)c3ccc(C)nc3Cl)s2)c1
2. Cc1occc1-c1nnc2sc(-c3c[nH]c4ccccc34)nn12
3. Cc1nn(-c2ccccc2)c(C)c1CCc1nnc2sc(-c3ccc(N(C)C)cc3)nn12
4. Cc1nc2nc(N(CCOc3ccccc3)S(=O)(=O)c3ccccc3)nn2c(C)c1Cl
5. CCCCN(CC)C(=O)C1CCCN(c2ccc(-c3ccccc3)nn2)C1 (stereo not drawn)
6. CCCCn1nnnc1NCc1ccc2c(c1)n(C)c(=O)n2C

Result:
1: 64.458; 2: 12.722; 3: 59.171; 4: 66.480; 5: 35.423; 6: 47.229

----------
# experimental target: SpCas9 (Streptococcus pyogenes serotype M1)
# test description: eGFP disruption assay, SpCas9, U2OS.eGFP.PEST cells
# Format: cell-based
# details: replicate 1
metric: Normalized Z rep1
Answers are plain numbers.

Example entries begin here.
N#Cc1[nH]c(=O)n(Cc2ccccc2)c1N : 0.00
Cc1cc(Sc2ccccc2NC(=O)c2cccc(F)c2)n2ncnc2n1 : −0.22
CCn1c(=O)c(C(=O)Nc2nccc(C)n2)c(O)c2ccccc21 : −0.05
Cc1nc2ccccc2n1Cc1nnc2n1N=C(N)CS2 : −0.25

Hi! Can you tell me Normalized Z rep1 for each of these compounds?
1. Fc1cccc(-c2nnc3sc(CCCc4ccccc4)nn23)c1
2. O=C(NCC1CCCO1)c1sc(=S)n2c1[nH]c(=O)c1cc3c(cc12)OCO3 (stereo not drawn)
3. O=C(Nc1ccc(F)c(Cl)c1)c1ccc(Oc2ccnc(-c3ccc(F)cc3)n2)cc1
4. c1ccc(-c2nnc3sc(-c4cc5ccccc5o4)nn23)nc1
5. Fc1ccc(-c2nn3c(-c4ccncc4)nnc3s2)cc1Br

Result:
1: −0.14; 2: −0.32; 3: −0.13; 4: −0.14; 5: −0.13

----------
# experimental target: SpCas9 (Streptococcus pyogenes serotype M1, UniProt Q99ZW2)
# Sequence (Q99ZW2 whole entry): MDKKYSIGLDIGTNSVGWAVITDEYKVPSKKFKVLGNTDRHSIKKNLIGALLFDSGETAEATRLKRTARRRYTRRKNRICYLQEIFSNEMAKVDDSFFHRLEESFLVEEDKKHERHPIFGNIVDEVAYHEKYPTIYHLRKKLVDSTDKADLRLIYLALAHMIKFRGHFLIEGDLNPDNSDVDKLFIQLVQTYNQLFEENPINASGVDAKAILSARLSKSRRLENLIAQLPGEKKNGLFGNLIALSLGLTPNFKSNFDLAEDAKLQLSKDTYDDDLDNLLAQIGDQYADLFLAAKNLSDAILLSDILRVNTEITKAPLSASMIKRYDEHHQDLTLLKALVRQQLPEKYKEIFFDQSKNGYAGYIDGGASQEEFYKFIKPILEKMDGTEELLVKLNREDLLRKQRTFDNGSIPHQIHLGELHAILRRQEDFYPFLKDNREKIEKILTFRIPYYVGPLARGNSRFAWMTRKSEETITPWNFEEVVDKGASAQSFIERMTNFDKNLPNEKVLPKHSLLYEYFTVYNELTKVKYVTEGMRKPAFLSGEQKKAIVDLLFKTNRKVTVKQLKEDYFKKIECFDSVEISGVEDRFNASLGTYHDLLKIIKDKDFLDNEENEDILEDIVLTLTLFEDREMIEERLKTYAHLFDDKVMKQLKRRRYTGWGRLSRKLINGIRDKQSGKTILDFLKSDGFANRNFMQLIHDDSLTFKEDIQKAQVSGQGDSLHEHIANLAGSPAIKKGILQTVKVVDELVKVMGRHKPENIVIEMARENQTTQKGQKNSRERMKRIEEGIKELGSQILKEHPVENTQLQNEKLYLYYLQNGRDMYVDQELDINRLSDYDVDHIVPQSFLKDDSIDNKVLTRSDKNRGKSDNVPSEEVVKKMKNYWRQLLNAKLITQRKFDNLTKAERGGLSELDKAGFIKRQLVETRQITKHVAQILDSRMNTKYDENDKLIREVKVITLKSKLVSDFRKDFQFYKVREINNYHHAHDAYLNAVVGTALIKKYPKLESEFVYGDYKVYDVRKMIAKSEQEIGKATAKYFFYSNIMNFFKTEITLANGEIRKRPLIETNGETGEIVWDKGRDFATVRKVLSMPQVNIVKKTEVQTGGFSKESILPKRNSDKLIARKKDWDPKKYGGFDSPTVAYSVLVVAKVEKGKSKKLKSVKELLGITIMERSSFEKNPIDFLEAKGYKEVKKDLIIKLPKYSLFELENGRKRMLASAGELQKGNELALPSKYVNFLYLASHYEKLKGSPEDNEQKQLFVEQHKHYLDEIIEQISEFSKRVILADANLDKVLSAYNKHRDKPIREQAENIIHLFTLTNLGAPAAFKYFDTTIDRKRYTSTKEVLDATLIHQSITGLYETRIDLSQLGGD
# test description: Strand displacement assay (SDA) / cumulative activity assay (CAA), SpCas9 primary screen
# Assay type: biochemical
# details: Primary Screen (150 min); replicate 1
metric: Normalized Z score 1
Give bare numbers.

Hi! Can you tell me Normalized Z score 1 for each of these compounds?
1. O=C(O)c1cccc(NCC2SC(=S)NC2=O)c1 (centres unmarked)
2. O=C(CCS(=O)(=O)c1ccc(Cl)cc1)Nc1nc(-c2ccncc2)cs1
3. O=C1NC(=S)C(=C2CCCC2)S1
4. CCn1c(CCC(=O)O)nc2cc(S(N)(=O)=O)ccc21
5. Cc1[nH]nc2ccc(-c3cncc(OCC(N)Cc4ccccc4)c3)cc12 (centres unmarked)

Result:
[0.32, 0.05, 0.27, 0.14, 0.17]

----------
For each of the compounds below, state its Normalized eGFP Disruption Rep 2.
# experimental target: SaCas9 (Staphylococcus aureus)
# Sequence (J7RUA5 1-1053): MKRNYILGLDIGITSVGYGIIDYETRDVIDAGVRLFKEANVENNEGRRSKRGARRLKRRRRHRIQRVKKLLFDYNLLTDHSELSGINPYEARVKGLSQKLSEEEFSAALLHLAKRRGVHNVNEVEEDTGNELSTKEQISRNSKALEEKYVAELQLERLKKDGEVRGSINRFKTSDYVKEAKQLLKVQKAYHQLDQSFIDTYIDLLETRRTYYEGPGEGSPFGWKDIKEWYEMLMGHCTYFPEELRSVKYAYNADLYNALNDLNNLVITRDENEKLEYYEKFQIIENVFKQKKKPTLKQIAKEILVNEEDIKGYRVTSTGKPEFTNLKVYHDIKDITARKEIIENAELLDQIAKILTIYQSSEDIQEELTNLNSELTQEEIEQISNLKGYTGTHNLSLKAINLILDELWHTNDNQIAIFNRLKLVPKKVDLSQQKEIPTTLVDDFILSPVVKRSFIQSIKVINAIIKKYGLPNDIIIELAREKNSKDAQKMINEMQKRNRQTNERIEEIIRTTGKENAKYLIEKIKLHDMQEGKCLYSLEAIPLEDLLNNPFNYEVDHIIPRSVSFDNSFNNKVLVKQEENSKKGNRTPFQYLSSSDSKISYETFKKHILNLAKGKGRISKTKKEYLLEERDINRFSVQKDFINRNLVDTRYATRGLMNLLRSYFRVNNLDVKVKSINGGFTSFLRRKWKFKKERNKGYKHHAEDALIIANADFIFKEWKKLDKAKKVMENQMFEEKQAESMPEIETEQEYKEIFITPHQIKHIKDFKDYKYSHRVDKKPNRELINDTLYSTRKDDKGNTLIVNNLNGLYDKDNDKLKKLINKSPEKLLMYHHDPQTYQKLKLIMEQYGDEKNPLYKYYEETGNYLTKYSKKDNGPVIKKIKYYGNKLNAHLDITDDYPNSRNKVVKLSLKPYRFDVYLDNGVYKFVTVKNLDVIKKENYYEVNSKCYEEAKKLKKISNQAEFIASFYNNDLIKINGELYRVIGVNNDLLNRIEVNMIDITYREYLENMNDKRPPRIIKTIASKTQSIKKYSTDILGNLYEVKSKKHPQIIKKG
# test description: eGFP secondary assay, SaCas9
# Assay type: cell-based
# details: replicate 2, % eGFP disruption
Numbers only.

Cc1nn(-c2ccccc2)c(C)c1CCc1nnc2sc(-c3ccc(N(C)C)cc3)nn12 : 40.829

Hi! Can you tell me Normalized eGFP Disruption Rep 2 for each of these compounds?
1. O=c1oc2c(O)c(O)ccc2c2c1CCCC2
2. CCCCN(CC)C(=O)C1CCCN(c2ccc(-c3ccccc3)nn2)C1 (stereo not drawn)

Result:
1. 61.053
2. 64.577

Hi! Can you tell me Normalized eGFP Disruption Rep 2 for each of these compounds?
1. Fc1cccc(-c2nnc3sc(-c4c[nH]c5ccccc45)nn23)c1
2. Cc1nc2nc(N(CCOc3ccccc3)S(=O)(=O)c3ccccc3)nn2c(C)c1Cl
3. CC1(C(=O)NC2CCCCC2)Cn2c(cc3ccccc32)C(=O)N1Cc1ccccc1 (stereo not drawn)
4. Cc1ccccc1CC(=O)N1CCCC(c2nc(O)c3nnn(Cc4ccc(F)cc4)c3n2)C1 (stereo not drawn)
5. O=C1c2ccccc2C(=O)c2oc(-c3ccc(F)cc3)nc21
6. CNC(=O)c1sc(=S)n2c1[nH]c(=O)c1cc(Br)ccc12

Result:
1: 87.293; 2: 33.520; 3: 65.899; 4: 56.575; 5: 64.481; 6: 77.181

----------
# experimental target: SaCas9 (Staphylococcus aureus, UniProt J7RUA5)
# test description: Strand displacement assay, SaCas9 primary screen
# Type: biochemical
# details: SaCas9 primary screen, weaker potential hits, replicate 1
# Description: An overview of the screening for SaCas9 inhibitors is depicted in FIG. 14. A total of 43,168 Compounds were screened from the ICCB Libraries. […] A hit is determined from the Zscore, with 3-5σ being a weak hit, >5σ being a strong hit. […] Generalization of CAA to other Cas nucleases. […] Given the similarities between SaCas9 and SpCas9 modes of DNA-substrate binding and protein folding,^26, 27 Applicants hypothesized that SaCas9-induced strand displacement could be similarly measured. […]
metric: Normalized Zscore Rep 1
One number for each entry.

Example entries begin here.
CCN(Cc1ccccc1)c1ncc(NS(=O)(=O)CC)cc1C(=O)O : 0.3022
CCCN1CCN(c2ccc(C(=O)O)cc2NC(=O)c2ccccc2Cl)CC1 : 0.2725
O=C(O)c1cc(NS(=O)(=O)c2cc(F)ccc2F)cnc1N1CCC(N2CCCCC2)CC1 : 0.1887
Cc1cc(-c2nnc3sc(COc4ccccc4Cl)nn23)[nH]n1 : 0.2028
NS(=O)(=O)c1ccc(CCNC(=O)C2=Cc3sc4c(c3CS2)CCCC4)cc1 : 0.2746
Cc1noc2c1C(c1ccc(O)c(O)c1)C1=C(CC(c3ccc(O)cc3)CC1=O)N2 (centres unmarked) : 0.2133
Cc1cccc(Nc2nc(C(N)=O)c(NC(=O)c3ccc(F)cc3)s2)c1C : 0.2077

Turning to the following molecule.
Ask: Return reported Normalized Zscore Rep 1; argument: `CN(C)c1ncc(NS(=O)(=O)c2ccc(F)c(F)c2)cc1C(=O)O`
Result: 0.2087

----------
# experimental target: SaCas9 (Staphylococcus aureus, UniProt J7RUA5)
# test description: Strand displacement assay, SaCas9 primary screen
# Format: biochemical
# details: SaCas9 primary screen, weaker potential hits, replicate 2
metric: Normalized Zscore Rep 2
Give bare numbers.

Example entries begin here.
NC(=O)c1c(NC(=O)COCc2cc(-c3ccc4c(c3)OCO4)on2)sc2c1CCCC2 : 0.3604
O=C(NCCCN1CCC(N2CCCCC2)CC1)C1=Cc2sc3c(c2CS1)CCCC3 : 0.3192
CCN(CCN(C)C)c1ncc(NS(=O)(=O)c2cc(C)c(C)cc2C)cc1C(=O)O : 0.3056
CCN(CC)c1ncc(NS(=O)(=O)c2cc(C)c(C)cc2C)cc1C(=O)O : 0.2114
CCOC(=O)c1c(NC(=O)CSc2nnc3cc(C)c4cccc(OC)c4n23)sc(C)c1C : 0.1495

Hi! Can you tell me Normalized Zscore Rep 2 for each of these compounds?
1. O=C(O)c1cc(NS(=O)(=O)c2cc(F)ccc2F)cnc1N1CCOCC1
2. Cc1cc(-c2nn3c(COc4ccccc4)nnc3s2)no1
3. Cc1cccc(Nc2nc(C(N)=O)c(NC(=O)c3ccc(F)cc3)s2)c1C

Result:
1: 0.1646; 2: 0.2232; 3: 0.4936
